- System: DCAMKL2;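 further: KINOMEscan kinase panel screen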
- Construct: gene DCLK2
- CONDITION SUMMARY: concentration: 1 μM, replicates: in singlicate; n = 1
OUTCOME MEASURE: %Inh (%)

[
  {
    "COMPOUND": "O=C(Nc1n[nH]c2nc(-c3ccccc3)ccc12)C1CC1",
    "OUTCOME MEASURE": "%Inh",
    "UNIT ANNOTATION": "%",
    "ENDPOINT VALUE": 6
  },
  {
    "COMPOUND": "CN(c1ccc(NC(=O)N2CCN(CCCN3CCOCC3)CC2)cc1)c1ccnc(Nc2ccc(CS(C)(=O)=O)cc2)n1.Cl",
    "OUTCOME MEASURE": "%Inh",
    "UNIT ANNOTATION": "%",
    "ENDPOINT VALUE": 0
  },
  {
    "COMPOUND": "Cc1ccc(-c2ccc3occ(-c4ccc(S(C)=O)cc4)c3c2)nn1 (centres unmarked)",
    "OUTCOME MEASURE": "%Inh",
    "UNIT ANNOTATION": "%",
    "ENDPOINT VALUE": 0
  },
  {
    "COMPOUND": "Cc1nn2c(=O)cc(N3CCO[C@H](C)C3)nc2n1Cc1cccc(Cl)c1Cl",
    "OUTCOME MEASURE": "%Inh",
    "UNIT ANNOTATION": "%",
    "ENDPOINT VALUE": 6
  },
  {
    "COMPOUND": "COc1cc(Nc2nccc(N3CCC(NS(=O)(=O)c4ccc(NC(C)=O)cc4)CC3)n2)cc(OC)c1OC",
    "OUTCOME MEASURE": "%Inh",
    "UNIT ANNOTATION": "%",
    "ENDPOINT VALUE": 1
  }
]
